# TARGET OF ASSAY: acetylcholine receptor
# ASSAY NAME: SPR, peptide at 10 uM, acetylcholine receptor immobilized on chip
Kindly state Binding affinity (RU) for each of the entries shown.

# count of solved cases: 3
RKEGK [5mer-604]; 13 RU
RNTWK [5mer-614]; 29 RU
RDEDR [5mer-927]; 19 RU

Continue with the binder presented below.
Lookup: Give the reported Binding affinity (RU) for this binder. RIEER [5mer-607]
Found: 25 RU
